system: Platelet-activating factor acetylhydrolase IB subunit alpha2 (Homo sapiens) (UniProt P68402)
Sequence (P68402 whole entry, looked up): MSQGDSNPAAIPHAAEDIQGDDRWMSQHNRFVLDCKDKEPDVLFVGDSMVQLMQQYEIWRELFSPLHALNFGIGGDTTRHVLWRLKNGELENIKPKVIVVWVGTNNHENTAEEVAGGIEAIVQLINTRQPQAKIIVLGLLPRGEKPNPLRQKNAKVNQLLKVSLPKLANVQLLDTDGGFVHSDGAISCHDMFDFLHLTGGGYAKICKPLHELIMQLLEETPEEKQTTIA
assay-name: inhibition of human PAFAH1B2 catalytic subunit – biochemical, fluorescence polarization, FP-rhodamine probe, triplicate, confirmation (AID 493034);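 note: 0% = enzyme with DMSO and 100% = wells lacking PAFAH1B2 protein; inhibitors lower polarization by leaving the probe unbound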
condition-description: recombinant PAFAH1B2, FP-rhodamine probe fluorescence polarization; at 3.39 µM
Out of some 2,400 compounds screened, about 2,200 (92%) were called active.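 Rule for the calls: active = mean inhibition over triplicate runs exceeds the cutoff derived for the earlier primary screen (cut at about 25% in these data); inactive = the rest.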 So high a share suggests a set chosen from earlier hits. The list shows a part of the results.
Outcome codes: t (active), f (inactive)

| smiles-data | class-assignment |
| --- | --- |
| O=C1NCCOC(=O)[C@H](Cc2ccc(F)cc2)C/C=C\C[C@H]1CC(=O)N(CCO)Cc1ccccc1 | f |
| Cc1ccc(S(=O)(=O)N2[C@@H](c3ccc(Cl)cc3)C(C(=O)O)=CC[C@H]2c2ccc(C(C)C)cc2)cc1 | t |
| O=C(C[C@H]1C/C=C/CC[C@H](Cc2ccc(F)cc2)C(=O)O[C@H](c2ccccc2)CNC1=O)NCCO | f |
| O=C1NC[C@H](c2ccccc2)OC(=O)[C@H](Cc2ccc(F)cc2)C/C=C\C[C@H]1CC(=O)N(CCO)Cc1ccccc1 | t |
| Cc1ccc(S(=O)(=O)N2[C@@H](c3ccc(Br)cc3)C(C(=O)O)=CC[C@H]2c2ccc(C(C)C)cc2)cc1 | t |
| O=C(NCc1cccnc1)C(=O)Nc1nc(C23CC4CC(CC(C4)C2)C3)cs1 | f |
| Cc1cc(N2CCCC2=O)cc(C)c1S(=O)(=O)NCCOc1ccc(C(C)(C)C)cc1 | t |
| O=c1[nH]c2cc(Cl)ccc2c(O)c1-c1cccc(Oc2ccccc2)c1 | t |

###

system: Platelet-activating factor acetylhydrolase IB subunit alpha2 (Homo sapiens) (UniProt P68402)
assay-name: inhibition of human PAFAH1B2 catalytic subunit – biochemical, fluorescence polarization, FP-rhodamine probe, triplicate, confirmation (AID 493034);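 note: 0% = enzyme with DMSO and 100% = wells lacking PAFAH1B2 protein; inhibitors lower polarization by leaving the probe unbound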
condition-description: recombinant PAFAH1B2, FP-rhodamine probe fluorescence polarization; at 3.39 µM; hits give high values
The whole screen tested about 2,400 compounds, of which about 2,200 (92%) were called active. The set was probably picked from earlier hits. The list shows a part of the results.
Entries and their measured inhibition follow.

| compound | unit-of-measure | inhibition |
| --- | --- | --- |
| CC(C)CNC(=O)c1cccc(NC(=O)CSc2ccc(Cl)cc2)c1 | % | 22.5 |
| CC1(c2ccc(Cl)cc2)NC(=S)N2C1NC(=S)N2c1ccccc1 (centres undefined) | % | 18.1 |
| Cc1ccc(C)c(Cn2nnc3c(=O)[nH]c(C(=O)NCC4CCCO4)nc32)c1 (centres undefined) | % | 5.01 |
| N#Cc1c(-c2ccccc2)nc(SCC(=O)N(c2ccccc2)c2ccccc2)[nH]c1=O | % | 38.8 |
| O=[N+]([O-])c1cc(-c2csc(NCCc3nc4cc(C(F)(F)F)ccc4n3CCCO)n2)ccc1Cl | % | 14.9 |
| Cc1ccc(S(=O)(=O)n2nc(-c3cccnc3)nc2N)cc1 | % | 23.2 |
| O=C(O)C1=CC[C@@H](c2ccc(Cl)cc2)N(S(=O)(=O)c2ccc(Cl)cc2)[C@H]1c1ccc(Br)cc1 | % | 86.3 |
| CNC(=S)N(Cc1ccc(OC)cc1)C1CC(=O)N(c2ccc(Cl)cc2)C1=O (centres undefined) | % | 23.9 |
| CCCCn1c(N)c(N(CC(C)C)C(=O)CN2C(=O)NC3(CCC(C(C)(C)CC)CC3)C2=O)c(=O)[nH]c1=O (centres undefined) | % | 16.4 |
